molecular target: KRAS(G12D)/SOS1 (Homo sapiens, UniProt P01116, G12D); assay: KRAS(G12D)/SOS1 homogeneous time-resolved fluorescence (HTRF) assay; conditions: absence of GTP; 4° C., 3 hr
Sequence (P01116 1-188 isoform P01116-2 G12D): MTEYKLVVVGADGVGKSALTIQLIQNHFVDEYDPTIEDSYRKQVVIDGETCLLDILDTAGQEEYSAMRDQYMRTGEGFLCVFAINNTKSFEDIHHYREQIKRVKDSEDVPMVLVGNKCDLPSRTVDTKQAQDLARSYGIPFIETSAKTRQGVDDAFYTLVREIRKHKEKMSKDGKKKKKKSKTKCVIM

SAMPLE SMILES | SYSTEM TESTED | IC50
C#Cc1c(F)ccc2cc(O)cc(-c3ncc4c(N5CC6CCC(C5)N6)nc(OCC5CN(Cc6ccc(-n7c(C(=O)NCC(F)(F)F)nnc7-c7cc(C(C)C)c(O)cc7O)cc6)C5)nc4c3F)c12 | KRAS(G12D)/SOS1 (Homo sapiens, UniProt P01116, G12D) | < 100 nM
C#Cc1cccc2cc(O)cc(-c3ncc4c(N5CC6CCC(C5)N6)nc(OCC5(CN6CCC(C(=O)N7CCN(C(=O)C8CCN(Cc9ccc%10c(c9)CN(C(=O)c9cc(C(C)C)c(O)cc9O)C%10)CC8)CC7)CC6)CC5)nc4c3F)c12 | KRAS(G12D)/SOS1 (Homo sapiens, UniProt P01116, G12D) | < 100 nM
C#Cc1cccc2cc(O)cc(-c3ncc4c(N5CC6CCC(C5)N6)nc(OC[C@@H]5C[C@H](N6CCN(Cc7ccc(-n8c(C(=O)NCC)nnc8-c8cc(C(C)C)c(O)cc8O)cc7)CC6)CN5C)nc4c3F)c12 | KRAS(G12D)/SOS1 (Homo sapiens, UniProt P01116, G12D) | < 100 nM

###

The entries below are paired with their reported IC50.
molecular target: KRAS(G12D)/SOS1 (Homo sapiens, UniProt P01116, G12D); test: KRAS(G12D)/SOS1 homogeneous time-resolved fluorescence (HTRF) assay; details: absence of GTP; 4° C., 3 hr
QUANTITY NAME: IC50

COMPOUND | SYSTEM TESTED | QUANTITY NAME | RESULT
CC(C)c1cc(C(=O)N2Cc3ccc(CN4CCN([C@H]5C[C@@H](COc6nc(N7CC8CCC(C7)N8)c7cnc(-c8cccc9cccc(C#N)c89)c(F)c7n6)N(C)C5)CC4)cc3C2)c(O)cc1O [Compound 63] | KRAS(G12D)/SOS1 (Homo sapiens, UniProt P01116, G12D) | IC50 | 100 to 1000 nM
CCc1cc(-c2nnc(C(=O)NCC(F)(F)F)n2-c2ccc(CN3CCN([C@H]4C[C@@H](COc5nc(N6CC7CCC(C6)N7)c6cnc(-c7cccc(C)c7C)c(F)c6n5)N(C)C4)CC3)cc2)c(O)cc1O [Compound 81] | KRAS(G12D)/SOS1 (Homo sapiens, UniProt P01116, G12D) | IC50 | > 1000 nM
CCNC(=O)c1nnc(-c2cc(C(C)C)c(O)cc2O)n1-c1ccc(CN2CCN([C@H]3C[C@@H](COc4nc(N5CC6CCC(C5)N6)c5cnc(-c6cccc(F)c6C)c(F)c5n4)N(C)C3)CC2)cc1 [Compound 62] | KRAS(G12D)/SOS1 (Homo sapiens, UniProt P01116, G12D) | IC50 | > 1000 nM

###

molecular target: KRAS(G12D)/SOS1 (Homo sapiens, UniProt P01116, G12D); assay: KRAS(G12D)/SOS1 homogeneous time-resolved fluorescence (HTRF) assay; conditions: absence of GTP; 4° C., 3 hr
pIC50: −log10 of the molar value.
The entries below are paired with their reported pIC50.

COMPOUND | pIC50
CCNC(=O)c1nnc(-c2cc(C(C)C)c(O)cc2O)n1-c1ccc(CN2CCN([C@H]3C[C@@H](COc4nc(N5CC6CCC(C5)N6)c5cnc(-c6cccc7cccc(C)c67)c(F)c5n4)N(C)C3)CC2)cc1 [Compound 29] | 6.00 to 7.00
C#Cc1cccc2cc(O)cc(-c3ncc4c(N5CC6CCC(C5)N6)nc(OCC5(CN6CCN(CC7CCN(Cc8ccc(-n9c(C(=O)NC(C)C(F)(F)F)nnc9-c9cc(C(C)C)c(O)cc9O)cc8)CC7)CC6)CC5)nc4c3F)c12 (stereo not drawn) [Compound 126] | > 7.00
CC(C)c1cc(-c2nnc(C(=O)NC(C)C(F)(F)F)n2-c2ccc(CN3CCN([C@H]4C[C@@H](COc5nc(N6CC7CCC(C6)N7)c6cnc(-c7cc(O)cc8ccccc78)c(F)c6n5)N(C)C4)CC3)cc2)c(O)cc1O (stereo partly drawn) [Compound 100] | > 7.00
C#Cc1c(F)ccc2cc(O)cc(-c3ncc4c(N5CC6CCC(C5)N6)nc(OCC5CN(Cc6ccc7c(c6)CN(C(=O)c6cc(C(C)C)c(O)cc6O)C7)C5)nc4c3F)c12 [Compound 172] | > 7.00
C#Cc1c(F)ccc2cc(O)cc(-c3ncc4c(N5CC6CCC(C5)N6C(=O)C(F)(F)F)nc(OCC5(CN6CCN(CC7CCN(Cc8ccc(-n9c(C(=O)NCC)nnc9-c9cc(C(C)C)c(O)cc9O)cc8)CC7)CC6)CC5)nc4c3F)c12 [Compound 147] | > 7.00
C#Cc1c(F)ccc2cc(O)cc(-c3ncc4c(N5CC6CCC(C5)N6)nc(CCC5(CN6CCN(C7CCN(Cc8ccc9c(c8)CN(C(=O)c8cc(C(C)C)c(O)cc8O)C9)CC7)CC6)CC5)nc4c3F)c12 [Compound 161] | > 7.00
CC(C)c1cc(-c2nnc(O)n2-c2ccc(CN3CCN(C(=O)C4CCN([C@H]5C[C@@H](COc6nc(N7CC8CCC(C7)N8)c7cnc(-c8cccc9cccc(Cl)c89)cc7n6)N(C)C5)CC4)CC3)cc2)c(O)cc1O [Compound 4] | 6.00 to 7.00
CC(C)c1cc(-c2nnc(O)n2-c2ccc(CN3CCN(C(=O)C4CCN([C@H]5C[C@@H](COc6nc(N7CC8CCC(C7)N8)c7cnc(-c8cccc9cccc(Cl)c89)c(F)c7n6)N(C)C5)CC4)CC3)cc2)c(O)cc1O [Compound 5] | > 7.00
C#Cc1c(F)ccc2cc(O)cc(-c3ncc4c(N5CC6CCC(C5)N6)nc(OCC5CN(Cc6ccc(-n7c(C(=O)NC(C)C(F)(F)F)nnc7-c7cc(C(C)C)c(O)cc7O)cc6)C5)nc4c3F)c12 (stereo not drawn) [Compound 174] | > 7.00
